target: Tyrosine-protein kinase SYK (Homo sapiens) (UniProt P43405); details: at 1 µM
Description: GSK_PKIS: SYK mean inhibition at 1 uM [Nanosyn]
EXPERIMENTAL READOUT: inhibition (%)
One number for each entry, in %.

Cc1cc(Cl)cc2c1NC(=O)C2=NNc1ccc(S(N)(=O)=O)cc1; 0.95
Cc1ccc2c(-c3ccnc(Nc4cccc(C(F)(F)F)c4)n3)c(-c3ccccc3)nn2n1; -5.34
NS(=O)(=O)c1ccc(-c2cc3ccncc3cc2OCc2ccccc2)cc1; 0.64

Provide inhibition values for the following items, in order.
1. COc1cc(Nc2nccc(-c3cnn4ncccc34)n2)cc(OC)c1
2. CS(=O)(=O)CCNCc1nc(-c2ccc3ncnc(Nc4ccc(OCc5cccc(C(F)(F)F)c5)cc4)c3c2)cs1
3. CN(C)C(=O)O[C@@H]1CN[C@@H](C#Cc2cc3ncnc(Nc4ccc(OCc5cccc(F)c5)c(Cl)c4)c3s2)C1
4. c1ccc(Nc2ncc(-c3ccccc3)o2)cc1
5. COc1ccc(-c2nn3ncccc3c2-c2ccnc(Nc3cccc(C(F)(F)F)c3)n2)cc1
6. COc1cccc(-n2ncc3c(N/N=C/c4ccc(C)cc4)ncnc32)c1
7. Cc1ccc2c(-c3ccnc(Nc4ccc5c(c4)OCCO5)n3)c(-c3ccc(C(F)(F)F)cc3)nn2n1

Result string:
1: 61.2; 2: 2.72; 3: 0.74; 4: 3.14; 5: -2.11; 6: 0.76; 7: -4.13

----------
biological target: Casein kinase I isoform gamma-1 (Homo sapiens) (UniProt Q9HCP0); settings: at 0.1 µM;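 note: reported as mean inhibition, part of GSK PKIS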
Sequence (Q9HCP0 whole entry, looked up, canonical isoform): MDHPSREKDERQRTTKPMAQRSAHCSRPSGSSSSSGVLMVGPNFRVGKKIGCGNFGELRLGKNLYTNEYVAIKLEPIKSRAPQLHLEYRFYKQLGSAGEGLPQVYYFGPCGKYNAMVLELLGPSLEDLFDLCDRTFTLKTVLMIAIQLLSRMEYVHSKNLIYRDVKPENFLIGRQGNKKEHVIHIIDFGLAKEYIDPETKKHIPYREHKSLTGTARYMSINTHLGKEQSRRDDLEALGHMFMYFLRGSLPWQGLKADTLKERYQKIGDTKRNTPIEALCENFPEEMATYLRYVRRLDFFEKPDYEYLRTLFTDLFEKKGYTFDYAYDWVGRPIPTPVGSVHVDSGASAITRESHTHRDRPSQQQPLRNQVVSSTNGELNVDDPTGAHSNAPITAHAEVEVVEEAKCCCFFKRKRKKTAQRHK
EXPERIMENTAL READOUT: inhibition (%)
Numbers only, in %.

Below are worked cases with known answers.
Nc1ccc(C#Cc2cncnc2Nc2ccc(OCc3cccc(F)c3)c(Cl)c2)cc1; 2.52
CS(=O)(=O)CCNCc1nc(-c2ccc3ncnc(Nc4ccc(OCc5cccc(C(F)(F)F)c5)cc4)c3c2)cs1; 1.2
Cc1ccc2c(c1)/C(=N/Nc1ccc(S(N)(=O)=O)cc1)C(=O)N2; 0.78

Provide inhibition values for the following items, in order.
1. c1ccc(Nc2ncc(-c3ccccc3)o2)cc1
2. Nc1nccc(-c2c(-c3ccc(F)cc3)ncn2CCCN2CCOCC2)n1
3. Cc1cc(-c2ccccn2)cc(C)c1/C=C/c1cncc(-c2nn[nH]n2)c1
4. CN(C)c1cc2c(Nc3ccc4c(cnn4Cc4ccccc4)c3)ncnc2cn1

Result string:
1: 3.94; 2: 3.45; 3: 6.09; 4: 2.47

Provide inhibition values for the following items, in order.
1. Cc1ccc(C(=O)NC2CC2)cc1-c1ccc2[nH]ncc2c1
2. CC(C)c1ccc2c(c1)NC(=O)/C2=N/Nc1ccc(S(N)(=O)=O)cc1

Result string:
1. -3.43
2. 0.11

Query string: Entry `COc1cc2ncnc(Nc3ccc4c(cnn4Cc4ccccc4)c3)c2cc1OC` has what inhibition?
Result string: 1.64

----------
I'd be grateful if you could share measured inhibition for these entries.
target: Fibroblast growth factor receptor 4 (Homo sapiens); details: at 0.1 µM;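 note: values are mean percent inhibition of FGFR4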
Answers are plain numbers, in %.

Below are worked cases with known answers.
COc1cc2ncn(-c3cc(OCc4ccccc4S(C)(=O)=O)c(C#N)s3)c2cc1OC; 2
Cc1ccc(C(=O)NC2CC2)cc1-c1ccc2[nH]ncc2c1; 1.43
C[C@@H](Oc1cc(-n2cnc3ccc(OC[C@@H](O)CO)cc32)sc1C(N)=O)c1ccccc1Cl; -1.57
CN(C)CCCn1c(-c2nonc2N)nc2cnccc21; -1.87
Cc1ccc(Nc2ccnc(Nc3cccc(C(N)=O)c3)n2)cc1O; -3.61

Moving on to another compound below.
Query string: Return inhibition measured with Fibroblast growth factor receptor 4 (Homo sapiens) given this compound: `Cc1cc(O)cc(C)c1/C=C/c1cncc(C(=O)N(C)C)c1`
Result string: -0.32

Attribution: ChEMBL document CHEMBL1961873
